Tested on: L1210 leukemia ip in BDF1 mice, survival T/C
Assay: NCI In Vivo Anticancer Drug Screen. Data for tumor model L1210 Leukemia (intraperitoneal) in B6D2F1 (BDF1) mice
Conditions: endpoint: mean survival time; dose: 100.0 mg/kg/injection; schedule: Q04DX003 (ip); vehicle: saline with Tween-80; higher = longer survival
Toxic doses and inconclusive results are not listed. Square brackets hold non-standard residues; d marks the D form. Peptide text beside a SMILES is read from it. * marks the point of attachment. ξ: configuration not given here. Cbz = O=C(OCc1ccccc1)*; ξA = CC(N)C(=O)O
experimental readout: T/C

Enquiry: Looking for the measured T/C of CN(C)c1ccc(/C=C2\C=Cc3ccccc32)cc1Br , can you help?
Return: 101 % of control

Enquiry: Data request, read-out T/C, for Nc1nc(N)c(CCc2ccccc2)c(=O)[nH]1
Return: 100 % of control

Enquiry: Entry COc1ccc(C(C)c2ccccc2)cc1 (centres undefined) has what T/C?
Return: 98 % of control

Enquiry: Can you look up the measured T/C of Cc1c(N)c(C)c([N+](=O)[O-])c(C)c1N for me?
Return: 91 % of control

Enquiry: What measured T/C goes with CN(C)C(=O)NNC(=O)c1ccc(Cl)cc1 ?
Return: 100 % of control

Enquiry: What measured T/C goes with Nc1nc(=O)n(CC(=O)c2cccs2)cc1F ?
Return: 97 % of control

Enquiry: Would you kindly share the measured T/C for O=C(Nc1cccc(Cl)c1)Nc1cc(Cl)ccc1Cl ?
Return: 96 % of control

Enquiry: Give its T/C value. Item: Cc1cc(=O)[nH]c(N(CCO)CCO)n1
Return: 94 % of control

Enquiry: Quick one: T/C of O=c1ccc2c([nH]1)CCC2 ?
Return: 94 % of control

Enquiry: So what's the measured T/C for this one? CCNCc1ccc(OC)cc1
Return: 120 % of control

Enquiry: Given the molecule CC(NC(=O)CNC(=O)OCc1ccccc1)C(N)=O (stereo not drawn) (Cbz-Gly-[ξA]-NH2) , what is its reported T/C?
Return: 102 % of control

Enquiry: Given CN(C)/N=C\c1ccccc1Cl , state its recorded T/C.
Return: 101 % of control

Enquiry: Return reported T/C; argument: O=C(CNC(=O)OCc1ccccc1)NC(Cc1c[nH]c2ccccc12)C(=O)OCc1ccccc1 (centres undefined)
Return: 96 % of control

Enquiry: For the molecule shown here, Cc1c2cnccc2c(C)c2c1c1ccccc1n2CCCN1C(=O)c2ccccc2C1=O , give the reported T/C.
Return: 97 % of control

Enquiry: // returns reported T/C for input Cc1cc(C)c(C)c(C(C)O)c1C (centres undefined)
Return: 96 % of control

Enquiry: Requested field: T/C. Item: Brc1ccc(Oc2ccccc2)cc1
Return: 102 % of control

Enquiry: Could you share which T/C value was measured for CCc1c(C/C(=N/O)C(=O)O)[nH]c(=S)[nH]c1=O ?
Return: 97 % of control

Enquiry: Which measured T/C value corresponds to O=Cc1cc2c(cc1[N+](=O)[O-])OCO2 ?
Return: 101 % of control

Enquiry: State the recorded T/C for this entry: CCOC(=O)C(C#N)=C1CC(C)OC(C)C1 (centres undefined)
Return: 100 % of control

Enquiry: Value lookup for T/C; key = CCC(CCC(C)C1CCC2C3CC=C4CC(O)CCC4(C)C3CCC12C)C(C)C (centres undefined) (tested in a mixture with another compound)
Return: 100 % of control

Enquiry: Could you tell me which T/C is on file for CCN(CC)CC(=O)Nc1cccc2c1C(=O)c1c(c(O)c3ccccc3c1O)C2=O ?
Return: 101 % of control

Enquiry: Look up T/C for this molecule: CCCCCCCCSCCC(=O)O
Return: 97 % of control

Enquiry: Which T/C value belongs to O=C(O)c1cscc1Cc1ccccc1 ?
Return: 90 % of control

Enquiry: Sample CN(CCc1ccccc1)/N=N/c1nc[nH]c1C(N)=O — what was its T/C?
Return: 110 % of control

Enquiry: What value of T/C has been recorded for this entry: CC(=O)NC(C)(NC(=O)CCl)C(=O)O (centres undefined)
Return: 106 % of control

Enquiry: # lookup: T/C of Cc1ccc(C)c(S(=O)(=O)OCC2CO2)c1 (centres undefined)
Return: 104 % of control

Enquiry: Item under review: CC(=O)Nc1ccc(SC(=O)N(C)C)cc1 . Reported T/C?
Return: 103 % of control

Enquiry: Given CC(C)(C)OC(=O)NOc1ccc([N+](=O)[O-])cc1[N+](=O)[O-] , state its recorded T/C.
Return: 88 % of control

Enquiry: Quick one: T/C of COC(=O)c1ccccc1OC(=S)N(C)C ?
Return: 113 % of control

Enquiry: For the molecule shown here, CC(=O)OCc1ccc2ccccc2c1 , give the reported T/C.
Return: 101 % of control

Enquiry: Look up T/C for this molecule: Cc1nc2[nH]c(=O)[nH]c(=O)c2[nH]1
Return: 91 % of control

Enquiry: Can you look up the measured T/C of COP(=O)(OC)C(OC(=O)C(C)(C)SC(C)=S)=C(C)C for me?
Return: 103 % of control

Enquiry: Requested read-out: T/C. Entry: CC(=O)Nc1nn[nH]n1
Return: 94 % of control

Enquiry: // query T/C value for entry CCCCC(C)(C)COc1nc(OCC(C)(C)CCCC)nc(OCC(C)(C)CCCC)n1
Return: 89 % of control

Enquiry: Which T/C is listed for O=C1CCC(=O)N1C1C=CC=CC=C1 ?
Return: 98 % of control

Enquiry: Reported T/C, molecule CCCCNC(=O)Nc1ccc(N(C)C)cc1 : ____
Return: 102 % of control

Enquiry: Looking for the measured T/C of C[N+](C)(CC(=O)Nc1ccc(Cl)c(Cl)c1)CC(=O)c1ccc(Cl)cc1 , can you help?
Return: 92 % of control

Enquiry: Form field: reported T/C of CC(=O)CC(Br)CBr (centres undefined)
Return: 100 % of control

Enquiry: What T/C value was documented for this molecule, S=c1sc2ccccc2n1CN(c1ccccc1)c1ccc2ccccc2c1 ?
Return: 88 % of control

Enquiry: Need T/C, item O=c1ccc(=O)n(-c2ccc(Cl)cc2)[nH]1
Return: 104 % of control

Enquiry: Fill in the blank: the reported T/C of CC(C)C(C(=O)c1ccccc1)c1ccccc1 (centres undefined) is ____.
Return: 99 % of control

Enquiry: Need T/C, item C1=CC2C3CC(OCCOC4CC5CC4C4CC=CC54)C(C3)C2C1 (centres undefined)
Return: 98 % of control

Enquiry: # lookup: T/C of CCc1cccc(CC)c1NC(=O)CS
Return: 94 % of control

Enquiry: Given the molecule Cc1ccc(NC(=O)Nc2cccc(C(F)(F)F)c2)cc1NC(=O)Nc1cccc(C(F)(F)F)c1 , what is its reported T/C?
Return: 93 % of control
